tested-target: Serine/threonine-protein kinase ATR (Homo sapiens, UniProt Q13535)
Sequence (Q13535 whole entry): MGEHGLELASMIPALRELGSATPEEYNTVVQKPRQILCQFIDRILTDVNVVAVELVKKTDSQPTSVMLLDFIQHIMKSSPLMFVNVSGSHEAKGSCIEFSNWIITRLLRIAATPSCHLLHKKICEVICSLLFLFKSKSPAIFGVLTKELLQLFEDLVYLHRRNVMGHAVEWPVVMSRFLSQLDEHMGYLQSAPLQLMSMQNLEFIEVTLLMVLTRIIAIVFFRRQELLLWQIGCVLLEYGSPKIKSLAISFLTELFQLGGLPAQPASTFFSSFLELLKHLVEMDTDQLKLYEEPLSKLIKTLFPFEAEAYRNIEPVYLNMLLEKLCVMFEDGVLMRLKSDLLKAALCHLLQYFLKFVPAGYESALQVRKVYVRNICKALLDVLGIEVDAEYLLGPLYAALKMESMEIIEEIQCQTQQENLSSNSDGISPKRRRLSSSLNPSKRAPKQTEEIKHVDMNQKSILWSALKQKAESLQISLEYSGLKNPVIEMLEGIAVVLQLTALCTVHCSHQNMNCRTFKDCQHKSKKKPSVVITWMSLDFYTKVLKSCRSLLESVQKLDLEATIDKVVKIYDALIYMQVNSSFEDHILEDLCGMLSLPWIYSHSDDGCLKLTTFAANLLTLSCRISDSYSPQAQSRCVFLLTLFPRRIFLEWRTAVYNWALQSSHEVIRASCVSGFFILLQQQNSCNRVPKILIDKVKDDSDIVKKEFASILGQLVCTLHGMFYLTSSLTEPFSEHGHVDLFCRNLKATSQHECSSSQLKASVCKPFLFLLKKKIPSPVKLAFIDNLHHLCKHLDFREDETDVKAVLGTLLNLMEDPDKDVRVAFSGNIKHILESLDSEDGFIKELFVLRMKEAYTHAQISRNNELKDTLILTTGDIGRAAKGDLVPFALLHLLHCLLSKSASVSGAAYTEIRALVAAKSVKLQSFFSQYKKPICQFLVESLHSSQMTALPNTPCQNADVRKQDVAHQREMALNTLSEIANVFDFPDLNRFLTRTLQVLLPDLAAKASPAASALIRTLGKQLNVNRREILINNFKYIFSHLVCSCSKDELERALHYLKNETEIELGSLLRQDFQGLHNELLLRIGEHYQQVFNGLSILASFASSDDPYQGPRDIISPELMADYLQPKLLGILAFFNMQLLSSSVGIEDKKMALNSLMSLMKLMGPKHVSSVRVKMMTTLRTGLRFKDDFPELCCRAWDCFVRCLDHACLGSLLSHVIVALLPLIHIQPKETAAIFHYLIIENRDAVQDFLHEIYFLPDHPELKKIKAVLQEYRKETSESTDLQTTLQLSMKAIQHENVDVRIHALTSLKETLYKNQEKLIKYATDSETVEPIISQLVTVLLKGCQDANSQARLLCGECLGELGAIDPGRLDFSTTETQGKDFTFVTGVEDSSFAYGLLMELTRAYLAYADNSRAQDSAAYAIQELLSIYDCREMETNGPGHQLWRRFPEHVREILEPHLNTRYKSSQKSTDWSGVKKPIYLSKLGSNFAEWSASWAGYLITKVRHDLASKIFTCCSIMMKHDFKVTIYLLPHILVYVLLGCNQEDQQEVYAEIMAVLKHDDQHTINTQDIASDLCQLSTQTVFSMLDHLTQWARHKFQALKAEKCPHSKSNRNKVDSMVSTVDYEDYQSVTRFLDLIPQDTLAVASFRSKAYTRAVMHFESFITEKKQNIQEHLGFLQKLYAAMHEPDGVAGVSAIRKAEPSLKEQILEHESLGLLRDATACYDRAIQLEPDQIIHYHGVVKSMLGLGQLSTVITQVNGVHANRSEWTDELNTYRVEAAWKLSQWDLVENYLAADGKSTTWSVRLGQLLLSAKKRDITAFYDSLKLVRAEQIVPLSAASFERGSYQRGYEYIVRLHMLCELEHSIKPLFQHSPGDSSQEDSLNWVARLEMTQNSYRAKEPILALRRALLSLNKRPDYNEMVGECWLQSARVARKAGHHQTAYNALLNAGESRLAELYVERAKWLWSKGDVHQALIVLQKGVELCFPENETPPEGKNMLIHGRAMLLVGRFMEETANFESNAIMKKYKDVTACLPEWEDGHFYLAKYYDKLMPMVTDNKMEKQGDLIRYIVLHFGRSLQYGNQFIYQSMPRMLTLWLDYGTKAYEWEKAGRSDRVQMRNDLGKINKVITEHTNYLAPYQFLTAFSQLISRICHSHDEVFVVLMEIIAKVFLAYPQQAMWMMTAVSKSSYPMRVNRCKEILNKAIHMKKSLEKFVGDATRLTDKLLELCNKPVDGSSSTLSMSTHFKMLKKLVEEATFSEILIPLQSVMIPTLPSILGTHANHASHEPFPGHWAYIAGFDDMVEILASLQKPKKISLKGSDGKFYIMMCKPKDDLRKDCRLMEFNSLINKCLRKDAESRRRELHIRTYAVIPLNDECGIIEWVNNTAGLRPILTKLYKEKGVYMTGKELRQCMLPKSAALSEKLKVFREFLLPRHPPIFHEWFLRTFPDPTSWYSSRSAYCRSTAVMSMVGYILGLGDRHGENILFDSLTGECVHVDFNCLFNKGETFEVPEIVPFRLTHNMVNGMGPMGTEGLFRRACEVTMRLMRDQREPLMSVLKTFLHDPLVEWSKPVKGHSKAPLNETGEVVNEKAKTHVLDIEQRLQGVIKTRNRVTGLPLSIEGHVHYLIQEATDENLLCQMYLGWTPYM
assay: Inhibition of ATR in human HT-29 cells assessed as reduction in Chk1 phosphorylation at Ser-345 residue after 60 mins in presence of 4-nitroquinoline-1-oxide by Hoechst 33258 staining based plate reader analysis
Could you please report measured pIC50 for the items listed next?
Bear in mind: pIC50 is minus log10 of a mol/L concentration; give just that figure.

Which pIC50 reading was recorded for the compound CCC(CC)CNc1c(C(N)=O)cnc2ccc(C#N)cc12 ?
5.36

Which pIC50 reading was recorded for the compound C[C@@H](Nc1c(C(N)=O)cnc2ccc(-c3cccnc3)cc12)C1CCOCC1 ?
5.46

Which pIC50 reading was recorded for the compound NC(=O)c1cnc2ccc(-c3cccnc3)cc2c1NC1CCCC1 ?
5.92

Which pIC50 reading was recorded for the compound C[C@@H](Nc1c(C(N)=O)cnc2ccc(C#N)cc12)c1ccc(Cl)cc1 ?
5.33

Which pIC50 reading was recorded for the compound C[C@H](Nc1c(C(N)=O)cnc2ccc(-c3cccnc3)cc12)c1ccn(C)n1 ?
6.19

###

Could you please report measured log10(IC50) for the items listed next?
tested-target: Phosphatidylinositol 4,5-bisphosphate 3-kinase catalytic subunit alpha isoform (Homo sapiens, UniProt P42336)
Sequence (P42336 whole entry, canonical isoform): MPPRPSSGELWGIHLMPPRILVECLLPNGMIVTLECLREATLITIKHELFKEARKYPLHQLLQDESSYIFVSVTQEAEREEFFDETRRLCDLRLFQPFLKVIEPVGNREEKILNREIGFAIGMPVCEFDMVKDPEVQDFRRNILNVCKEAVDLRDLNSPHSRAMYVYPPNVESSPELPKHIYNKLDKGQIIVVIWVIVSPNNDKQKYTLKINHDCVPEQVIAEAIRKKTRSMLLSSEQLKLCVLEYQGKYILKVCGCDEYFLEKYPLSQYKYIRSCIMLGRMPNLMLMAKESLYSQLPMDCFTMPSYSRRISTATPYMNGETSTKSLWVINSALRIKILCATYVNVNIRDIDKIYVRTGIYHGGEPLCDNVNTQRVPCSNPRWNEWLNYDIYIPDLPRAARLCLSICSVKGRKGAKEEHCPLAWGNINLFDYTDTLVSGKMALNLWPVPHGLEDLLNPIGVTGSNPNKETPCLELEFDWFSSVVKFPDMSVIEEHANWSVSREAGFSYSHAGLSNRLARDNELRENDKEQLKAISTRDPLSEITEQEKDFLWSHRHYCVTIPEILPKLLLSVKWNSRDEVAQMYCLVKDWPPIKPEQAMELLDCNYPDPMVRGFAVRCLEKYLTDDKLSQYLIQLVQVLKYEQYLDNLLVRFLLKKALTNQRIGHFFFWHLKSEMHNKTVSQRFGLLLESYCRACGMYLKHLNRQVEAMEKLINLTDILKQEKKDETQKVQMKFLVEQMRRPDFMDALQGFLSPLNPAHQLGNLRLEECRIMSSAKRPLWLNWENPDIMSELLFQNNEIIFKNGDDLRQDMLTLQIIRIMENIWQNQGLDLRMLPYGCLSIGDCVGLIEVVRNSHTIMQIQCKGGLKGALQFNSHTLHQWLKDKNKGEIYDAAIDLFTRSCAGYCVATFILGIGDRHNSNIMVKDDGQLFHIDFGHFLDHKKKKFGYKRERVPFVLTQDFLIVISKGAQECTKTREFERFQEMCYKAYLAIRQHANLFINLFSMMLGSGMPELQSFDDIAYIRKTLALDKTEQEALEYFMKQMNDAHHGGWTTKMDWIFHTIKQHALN
assay: Inhibition of human recombinant PI3Kalpha using PIP2/ATP as substrate incubated for 20 mins followed by substrate addition by Kinase Glo reagent based luminescence assay
# log10 transformed; quantity=IC50; unit=nM

Which log10(IC50) reading was recorded for the compound C[C@@H](Nc1c(C(N)=O)cnc2ccc(-c3cccnc3)cc12)c1ccc(Cl)cc1 ?
0.90

Which log10(IC50) reading was recorded for the compound O=c1cc(-c2cccc3c2Sc2ccccc2S3)oc(N2CCOCC2)c1 [KU-55933] ?
2.66

Which log10(IC50) reading was recorded for the compound C[C@@H]1CN(CC(=O)Nc2ccc3c(c2)Cc2cccc(-c4cc(=O)cc(N5CCOCC5)o4)c2S3)C[C@H](C)O1 ?
2.66

Which log10(IC50) reading was recorded for the compound COCc1ccc(-c2cc3c(N[C@@H](C)c4ccn(C)n4)c(C(N)=O)cnc3cc2F)cn1 ?
2.65

Which log10(IC50) reading was recorded for the compound C[C@@H](Nc1c(C(N)=O)cnc2ccc(C#N)cc12)c1ccc(Cl)cc1 ?
1.56

Which log10(IC50) reading was recorded for the compound COc1cc2ncnc(-n3nc(-c4ccccn4)nc3N)c2cc1OC ?
3.17

Which log10(IC50) reading was recorded for the compound CCC(CC)CNc1c(C(N)=O)cnc2ccc(C#N)cc12 ?
2.39

###

tested-target: Phosphatidylinositol 4,5-bisphosphate 3-kinase catalytic subunit gamma isoform (Homo sapiens)
Sequence (P48736 whole entry, canonical isoform): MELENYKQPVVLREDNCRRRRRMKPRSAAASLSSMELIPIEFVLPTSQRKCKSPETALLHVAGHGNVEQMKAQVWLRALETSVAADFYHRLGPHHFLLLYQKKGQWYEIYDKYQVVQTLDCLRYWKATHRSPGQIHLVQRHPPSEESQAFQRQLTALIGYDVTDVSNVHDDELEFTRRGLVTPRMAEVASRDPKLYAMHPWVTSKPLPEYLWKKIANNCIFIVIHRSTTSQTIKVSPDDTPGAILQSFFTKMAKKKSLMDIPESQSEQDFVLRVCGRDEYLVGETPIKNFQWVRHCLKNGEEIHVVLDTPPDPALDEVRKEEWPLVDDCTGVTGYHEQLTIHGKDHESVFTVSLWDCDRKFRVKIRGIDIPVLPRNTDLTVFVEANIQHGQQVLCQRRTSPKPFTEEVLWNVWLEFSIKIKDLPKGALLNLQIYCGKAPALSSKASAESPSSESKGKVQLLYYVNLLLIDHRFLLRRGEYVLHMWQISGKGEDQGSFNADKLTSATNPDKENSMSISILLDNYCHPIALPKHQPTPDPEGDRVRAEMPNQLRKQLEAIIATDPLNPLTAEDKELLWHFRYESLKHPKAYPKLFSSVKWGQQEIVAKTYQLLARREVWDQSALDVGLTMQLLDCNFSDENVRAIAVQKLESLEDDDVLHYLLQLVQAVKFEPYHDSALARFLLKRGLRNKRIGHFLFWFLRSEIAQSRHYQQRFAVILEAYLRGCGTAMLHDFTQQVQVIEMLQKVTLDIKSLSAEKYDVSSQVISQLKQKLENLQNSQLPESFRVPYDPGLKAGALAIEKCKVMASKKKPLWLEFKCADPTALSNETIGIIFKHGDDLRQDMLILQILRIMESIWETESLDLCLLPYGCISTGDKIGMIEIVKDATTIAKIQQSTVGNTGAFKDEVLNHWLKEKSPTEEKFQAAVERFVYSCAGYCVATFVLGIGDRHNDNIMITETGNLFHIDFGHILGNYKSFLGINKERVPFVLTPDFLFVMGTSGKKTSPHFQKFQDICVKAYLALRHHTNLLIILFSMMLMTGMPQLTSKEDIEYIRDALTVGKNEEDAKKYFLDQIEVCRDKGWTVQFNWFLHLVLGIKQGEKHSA
assay: Inhibition of human recombinant PI3Kgamma using PIP2/ATP as substrate incubated for 20 mins followed by substrate addition by Kinase Glo reagent based luminescence assay
measured-parameter: IC50 (µM)
Give your result in µM as a bare value.

Which IC50 reading was recorded for the molecule C[C@@H](Nc1c(C(N)=O)cnc2ccc(-c3cccnc3)cc12)c1ccc(Cl)cc1 ?
0.045

Which IC50 reading was recorded for the molecule COCc1ccc(-c2cc3c(N[C@@H](C)c4ccn(C)n4)c(C(N)=O)cnc3cc2F)cn1 ?
7.1

Which IC50 reading was recorded for the molecule C[C@@H](Nc1c(C(N)=O)cnc2ccc(C#N)cc12)c1ccc(Cl)cc1 ?
0.204

###

assay: Volume of distribution at steady state in dog at 1.7 mg/kg, iv or 4.2 mg/kg, po
Type: ADME, organism-based, Canis lupus familiaris
protocol-conditions: in vivo, read-out: Vdss
measured-parameter: Vd (L/kg)
Give your result in L/kg as a bare value.

Which Vd reading was recorded for the compound COCc1ccc(-c2ccc3ncc(C(N)=O)c(N[C@@H](C)C4CCOCC4)c3c2)cn1 ?
2.6

###

assay: Oral bioavailability in dog at 4.2 mg/kg
Assay type: ADME, organism-based, Canis lupus familiaris
protocol-conditions: in vivo
measured-parameter: bioavailability (%)
Give your result in % as a bare value.

Which bioavailability reading was recorded for the compound COCc1ccc(-c2ccc3ncc(C(N)=O)c(N[C@@H](C)C4CCOCC4)c3c2)cn1 ?
31

###

assay: Fraction unbound in mouse plasma by equilibrium dialysis method
Type: ADME, cell-free
measured-parameter: fraction unbound
Please state the value as a number alone, without comment.

Which fraction unbound reading was recorded for the compound COCc1ccc(-c2cc3c(N[C@@H](C)c4ccn(C)n4)c(C(N)=O)cnc3cc2F)cn1 ?
0.17

###

assay: Fraction unbound in rat plasma by equilibrium dialysis method
Format: ADME, cell-free
measured-parameter: fraction unbound
Please state the value as a number alone, without comment.

Which fraction unbound reading was recorded for the molecule COCc1ccc(-c2cc3c(N[C@@H](C)c4ccn(C)n4)c(C(N)=O)cnc3cc2F)cn1 ?
0.12

###

assay: in vitro
protocol-conditions: human, hepatocytes
Could you please report measured log10 hepatocyte CLint at 1.5 h for the items listed next?
# log10 transformed; quantity=hepatocyte CLint at 1.5 h; unit=µL/min/1e6 cells

Which log10 hepatocyte CLint at 1.5 h reading was recorded for the molecule C[C@@H](Nc1c(C(N)=O)cnc2ccc(-c3cccnc3)cc12)c1ccn(C)n1 ?
0.53

Which log10 hepatocyte CLint at 1.5 h reading was recorded for the molecule C[C@H](Nc1c(C(N)=O)cnc2ccc(-c3cccnc3)cc12)c1ccn(C)n1 ?
1.00

Which log10 hepatocyte CLint at 1.5 h reading was recorded for the molecule NC(=O)c1cnc2ccc(-c3cccnc3)cc2c1SC1CCCC1 ?
1.26

Which log10 hepatocyte CLint at 1.5 h reading was recorded for the molecule NC(=O)c1cnc2ccc(-c3cccnc3)cc2c1NC1CCCCC1 ?
1.53

Which log10 hepatocyte CLint at 1.5 h reading was recorded for the molecule NC(=O)c1cnc2ccc(-c3cccnc3)cc2c1NCC1CCOCC1 ?
1.08

Which log10 hepatocyte CLint at 1.5 h reading was recorded for the molecule CCC(CC)CNc1c(C(N)=O)cnc2ccc(-c3cccnc3)cc12 ?
1.63

Which log10 hepatocyte CLint at 1.5 h reading was recorded for the molecule CCC(CC)CNc1c(C(N)=O)cnc2ccc(C#N)cc12 ?
1.08

Which log10 hepatocyte CLint at 1.5 h reading was recorded for the molecule C[C@@H](Nc1c(C(N)=O)cnc2ccc(-c3cccnc3)cc12)C1CCOCC1 ?
1.15

Which log10 hepatocyte CLint at 1.5 h reading was recorded for the molecule CCC(CC)CNc1c(C(N)=O)cnc2ccc(-c3ccc(COC)cc3)cc12 ?
1.32

Which log10 hepatocyte CLint at 1.5 h reading was recorded for the molecule C[C@@H](Nc1c(C(N)=O)cnc2ccc(-c3cccnc3)cc12)c1ccc(Cl)cc1 ?
1.04

Which log10 hepatocyte CLint at 1.5 h reading was recorded for the molecule C[C@@H](Nc1c(C(N)=O)cnc2ccc(C#N)cc12)c1ccc(Cl)cc1 ?
1.00

Which log10 hepatocyte CLint at 1.5 h reading was recorded for the molecule CCC(CC)CNc1c(C(N)=O)cnc2ccc(-c3cncnc3)cc12 ?
1.66

Which log10 hepatocyte CLint at 1.5 h reading was recorded for the molecule CCC(CC)CNc1c(C(N)=O)cnc2ccc(-c3ccc(C)nc3)cc12 ?
0.86

Which log10 hepatocyte CLint at 1.5 h reading was recorded for the molecule COCc1ccc(-c2ccc3ncc(C(N)=O)c(N[C@@H](C)c4ccn(C)n4)c3c2)c(F)n1 ?
0.76

Which log10 hepatocyte CLint at 1.5 h reading was recorded for the molecule CCC(CC)CNc1c(C(N)=O)cnc2ccc(-c3ccc(CO)nc3)cc12 ?
2.18

Which log10 hepatocyte CLint at 1.5 h reading was recorded for the molecule NC(=O)c1cnc2cc(F)c(-c3cccnc3)cc2c1NC1CCOCC1 ?
0.74

Which log10 hepatocyte CLint at 1.5 h reading was recorded for the molecule CCC(CC)CNc1c(C(N)=O)c(C)nc2ccc(-c3cccnc3)cc12 ?
0.78

Which log10 hepatocyte CLint at 1.5 h reading was recorded for the molecule NC(=O)c1cnc2ccc(-c3cccnc3)cc2c1NCC1CCCCC1 ?
1.60

Which log10 hepatocyte CLint at 1.5 h reading was recorded for the molecule CCC(CC)CNc1c(C(N)=O)cnc2ccc(-c3ccc(CS(C)(=O)=O)cc3)cc12 ?
1.36

Which log10 hepatocyte CLint at 1.5 h reading was recorded for the molecule NC(=O)c1cnc2ccc(-c3cccnc3)cc2c1NC1CCCC1 ?
1.36

Which log10 hepatocyte CLint at 1.5 h reading was recorded for the molecule COCc1ccc(-c2cc3c(N[C@@H](C)c4nn(C)cc4F)c(C(N)=O)cnc3cc2F)cn1 ?
0.74

Which log10 hepatocyte CLint at 1.5 h reading was recorded for the molecule CCC(CC)CNc1c(C(N)=O)cnc2ccc(-c3ccc(CS(C)(=O)=O)nc3)cc12 ?
1.18

Which log10 hepatocyte CLint at 1.5 h reading was recorded for the molecule CCC(CC)COc1c(C(N)=O)cnc2ccc(-c3cccnc3)cc12 ?
1.62

Which log10 hepatocyte CLint at 1.5 h reading was recorded for the molecule O=c1cc(-c2cccc3c2Sc2ccccc2S3)oc(N2CCOCC2)c1 [KU-55933] ?
1.52

Which log10 hepatocyte CLint at 1.5 h reading was recorded for the molecule C[C@@H]1CN(CC(=O)Nc2ccc3c(c2)Cc2cccc(-c4cc(=O)cc(N5CCOCC5)o4)c2S3)C[C@H](C)O1 ?
1.11

Which log10 hepatocyte CLint at 1.5 h reading was recorded for the molecule COc1cc2ncnc(-n3nc(-c4ccccn4)nc3N)c2cc1OC ?
0.65

Which log10 hepatocyte CLint at 1.5 h reading was recorded for the molecule CCC(CC)CNc1c(C(N)=O)cnc2ccc(-c3ccnnc3)cc12 ?
1.26

Which log10 hepatocyte CLint at 1.5 h reading was recorded for the molecule C[C@H](Nc1c(C(N)=O)cnc2ccc(-c3cccnc3)cc12)C1CCOCC1 ?
1.15

Which log10 hepatocyte CLint at 1.5 h reading was recorded for the molecule CCC(CC)CNc1c(C(N)=O)cnc2ccc(-c3ccncc3)cc12 ?
1.57

Which log10 hepatocyte CLint at 1.5 h reading was recorded for the molecule NC(=O)c1cnc2cc(Cl)c(-c3cccnc3)cc2c1NC1CCOCC1 ?
0.63

From: ChEMBL document CHEMBL4477207
